# measurement notes: Quantitative High-Throughput drug screen in 47 multiple myeloma cell lines against the NCATS MIPE library collection: MM1R_ATCC cell viability assay (AID 1918981); also: nearly all actives have a fitted effect of over 35% in size
# test conditions: MM1R multiple myeloma cells, CellTiter-Glo viability, 48 h; series mostly up to 45.8 µM
# Description: PI: Beverly A. Mock Ph.D. Laboratory of Cancer Biology and Genetics, Center for Cancer Research, National Cancer Institute, National Institute of Health, Bethesda, Maryland […] 5; Detector; 425V; Luminescence; Viewlux PerkinElmer. […] 1. […] Briefly, the corresponding myeloma cell lines were screened in 1,536-well plates with 500 cells, 5-uL per well for inhibition of cell viability (assessed by measuring ATP levels with CellTiterGlo). […]
Records with an inconclusive call do not appear. Calls of active or inactive are those of the source. Calls follow the shape of the dose curve; as a rule, active = well fitted cell-killing curve with a large enough effect; inconclusive = small, poorly fitted or top-dose-only effect, or effect the other way; inactive = no such curve, though single readings can be large or run the other way.
Permitted responses: label 1 for active, label 0 for inactive

Called result for C[N+](C)([O-])CCNc1ccc(NCC[N+](C)(C)[O-])c2c1C(=O)c1c(O)ccc(O)c1C2=O
label 1

Please state the recorded outcome for this compound: COc1cccc2c1C(=O)c1c(O)c3c(c(O)c1C2=O)C[C@@](O)(C(=O)CO)C[C@H]3O[C@H]1C[C@H](N)[C@H](O)[C@H](C)O1
label 1

// return assay outcome for COc1ccc2cc([S+]([O-])Cc3ncc(C)c(OC)c3C)nc2c1
label 0

Assay result, entry CC(C)(C)c1nc2c3cc[nH]c(=O)c3c3cc(F)ccc3c2[nH]1 — outcome?
label 1

Could you check what this test reported for Oc1cc2c(cc1O)C1c3ccc(O)c(O)c3OCC1(O)C2 (stereo not drawn) ?
label 0

Tell me the assay call for Cn1cc(C2=C(c3c4n(c5ccccc35)CCC(CN)C4)C(=O)NC2=O)c2ccccc21 (stereo not drawn) please.
label 1

Outcome logged for CC(=O)O[C@H]1C[C@@H]2CC[C@H]3[C@H]4C[C@H]([N+]5(C)CCCCC5)[C@@H](OC(C)=O)[C@@]4(C)CC[C@@H]3[C@@]2(C)C[C@H]1N1CCCCC1 in this assay:
label 0

Dear all, I need the recorded test outcome for COc1cccc2c1C(=O)c1c(O)c3c(c(O)c1C2=O)C[C@@](O)(C(=O)CO)C[C@@H]3O[C@H]1C[C@H](N)[C@@H](O)[C@H](C)O1 , thank you.
label 1

----------
# Tested on: HEK293
# measurement notes: Cytotoxic Profiling of Annotated Libraries Using Quantitative High-Throughput Screening (AID 1296008); also: % is scaled to controls: 0 for no effect and ±100 for the full control effect; nearly all actives have a fitted effect of over 60% in size
# test conditions: Five cell lines viability, CellTiter-Glo ATP luminescence, 48-72 h; stronger effect = lower value
Results filed as inconclusive are left out. Starred links: 1 amine or outer side, 2 acyl side, 3 side chain; linkers in the order of their positions; H or OH if unused. Positions of bridges follow the written chain, without caps; N, C: chain ends. Non-standard residues stand in square brackets, D forms with d. Residues, ends and D or L forms follow the SMILES beside them. Chains are numbered I, II in the order given. Actinocin(9to1) = Cc1c2oc3c(C)ccc(C(=O)[*:1])c3nc-2c(C(=O)[*:2])c(N)c1=O; NMeV = CN[CH](C(=O)O)C(C)C; Sar = CNCC(=O)O
Give max response for every item shown.
Form entry: value (%) — number only.

Name the recorded max response for O=c1ccn([C@@H]2O[C@H](CO)[C@H](O)[C@@H]2F)c(=O)[nH]1 .
-5.58

// lookup max response for CC(=O)O[C@H]1C[C@@H]2CC[C@H]3[C@H]4C[C@H]([N+]5(C)CCCCC5)[C@@H](OC(C)=O)[C@@]4(C)CC[C@@H]3[C@@]2(C)C[C@H]1N1CCCCC1
2.19

So what's the measured max response for this one? C[C@H](CCC(=O)O)[C@H]1CC[C@H]2[C@@H]3[C@H](O)C[C@@H]4C[C@H](O)CC[C@]4(C)[C@@H]3CC[C@]12C
-7.11

Entry CON=C(C(=O)N[C@@H]1C(=O)N2C(C(=O)O)=C(Cn3ccc(=N)n3CCO)CS[C@H]12)c1csc(N)n1 has what max response?
-24.1

# max response lookup, item Nc1cccc2c1C(=O)N(C1CCC(=O)NC1=O)C2=O (centres undefined)
-10.8

Quick one: max response for C[C@H](O)[C@@H]1C(=O)N2C(C(=O)O)=C(S[C@@H]3CN[C@H](CNS(N)(=O)=O)C3)[C@@H](C)[C@@H]12 ?
0.869

Entry O=C(O)CCCCC(CCSCc1ccccc1)SCc1ccccc1 (centres undefined) has what max response?
-0.529

Quick one: max response of COc1cc2ncnc(Nc3cccc(Br)c3)c2cc1OC ?
-29.7

What max response value was documented for this compound, COc1cc(OC)c(NC(=O)Nc2cc(C)on2)cc1Cl ?
-18.7

I am curious: what max response value has been reported for C=C(C)[C@@H]1CC[C@]2(C(=O)O)CC[C@]3(C)[C@H](CC[C@@H]4[C@@]5(C)CC[C@H](O)C(C)(C)[C@@H]5CC[C@]43C)[C@@H]12 ?
-13.5

Data request, read-out max response, for CC(=O)N[C@H]1[C@@H]([C@H](O)[C@H](O)CO)OC(C(=O)O)=C[C@@H]1N=C(N)N
2.95

For the compound CCOC(=O)[C@@H](N)Cc1ccc(-c2cc(O[C@H](c3ccc(Cl)cc3-n3ccc(C)n3)C(F)(F)F)nc(N)n2)cc1 , what max response is on record?
-5.12

For CC(C)(O)[C@H]1CC[C@@](C)([C@H]2[C@@H](O)C[C@@]3(C)[C@@H]4C[C@H](O[C@@H]5O[C@H](CO)[C@@H](O)[C@H](O)[C@@H]5O)[C@H]5C(C)(C)[C@@H](O[C@@H]6OC[C@@H](O)[C@H](O)[C@@H]6O)CC[C@@]56C[C@@]46CC[C@]23C)O1 , what is its reported max response?
2.98

Name the recorded max response for COc1ccc(Nc2nccc(NCCO)n2)cc1 .
-0.619

Report max response for CC(Cc1ccc(O)c(O)c1)(NN)C(=O)O (centres undefined) please.
-17.2

Could you share which max response value was measured for Cc1noc(-c2ccc(CSCCC(=O)O)cc2)c1NC(=O)OC(C)c1ccccc1Cl (centres undefined) ?
-6.98

I'd like to know its max response. The compound in question is C[C@H](NC(=O)Cc1cc(F)cc(F)c1)C(=O)N[C@H](C(=O)OC(C)(C)C)c1ccccc1
-28.5

State the recorded max response for this entry: Nc1ccn(C[C@@H](CO)OCP(=O)(O)O)c(=O)n1
-0.164

GET /values?readout=max response&item= O=C(O)[C@H](CC(=O)N1C[C@@H]2CCCC[C@H]2C1)Cc1ccccc1
-4.31

Need max response, item Cc1c2oc3c(C)ccc(C(=O)NC4C(=O)NC(C(C)C)C(=O)N5CCCC5C(=O)N(C)CC(=O)N(C)C(C(C)C)C(=O)OC4C)c3nc-2c(C(=O)NC2C(=O)NC(C(C)C)C(=O)N3CCCC3C(=O)N(C)CC(=O)N(C)C(C(C)C)C(=O)OC2C)c(N)c1=O (centres undefined) (I: TVP[Sar][NMeV] / II: TVP[Sar][NMeV]; ester I:1-I:C, II:1-II:C; linker I:N-II:N via Actinocin(9to1); configuration not given here)
-93.3

What value of max response has been reported for the following compound? CC(=O)NC(CS)C(=O)O (centres undefined)
-9.86

Suppose we examine the compound CC(=O)O[C@H]1C[C@@H]2CC[C@H]3[C@H]4C[C@H]([N+]5(C)CCCCC5)[C@@H](OC(C)=O)[C@@]4(C)CC[C@@H]3[C@@]2(C)C[C@H]1[N+]1(C)CCCCC1 ; what max response value has been reported?
0.173

Param item = Cn1cc(-c2ccc3ncc(Cc4ccc5ncccc5c4)n3n2)cn1 ; retrieve measured max response.
4.11

Data request, read-out max response, for C#C[C@]1(O)CC[C@@H]2[C@@H]3CCC4=CC(=O)CC[C@@H]4[C@H]3CC[C@@]21CC
-8.15
